Hi there, I'd appreciate the recorded pKd for every entry that follows.
target: Recombinant human his-tagged IGF R extracellular domain protein (human) (UniProt P08069); test: SPR, Ab captured via anti-huIgG Fc, dissociation at pH 6
Quick note: pKd means taking -log10 of the concentration in moles per liter.

Q: Any idea what its pKd is? The binder is VRDN-02021 (antibody, V domains shown) VH: QVQLQESGPGLVKPSETLSLTCTVSGYSITGGYLWNWIRQPPGKGLEWIGYISYDGTNNYKPSLKDRVTISRDTSKNQFSLKLSSVTAADTAVYYCARHGRVFFDYWGQGTLVTVSS VL: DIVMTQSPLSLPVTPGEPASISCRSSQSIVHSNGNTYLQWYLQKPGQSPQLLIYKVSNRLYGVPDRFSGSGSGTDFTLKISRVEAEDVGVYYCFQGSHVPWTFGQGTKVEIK
A: 8.86

Q: Any idea what its pKd is? The binder is VRDN-02024 (antibody, V domains shown) VH: QVQLQESGPGLVKPSETLSLTCTVSGYSITGGYLWNWIRQPPGKGLEWIGYISYDGTNNYKPSLKDRVTISRDTSKNQFSLKLSSVTAADTAVYYCARYGRHFFDYWGQGTLVTVSS VL: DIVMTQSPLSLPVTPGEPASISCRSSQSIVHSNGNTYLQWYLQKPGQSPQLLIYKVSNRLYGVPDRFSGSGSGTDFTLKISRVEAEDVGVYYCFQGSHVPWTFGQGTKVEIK
A: 9.10

Q: Any idea what its pKd is? The binder is VRDN-02055 (antibody, V domains shown) VH: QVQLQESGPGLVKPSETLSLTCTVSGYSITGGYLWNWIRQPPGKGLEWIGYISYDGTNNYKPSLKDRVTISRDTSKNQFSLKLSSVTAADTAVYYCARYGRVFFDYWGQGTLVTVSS VL: DIVMTQSPLSLPVTPGEPASISCRSSQSIVHSNGNTYLQWYLQKPGQSPQLLIYKVSNRLYGVPDRFSGSGSGTDFTLKISRVEAEDVGVYYCFQGSHHPWTFGQGTKVEIK
A: 8.96
